target: human Nav1.5 (Homo sapiens (Human), UniProt Q14524); experiment: Qpatch automated patch-clamp, peak Nav1.5 current inhibition, 5-Hz AF-like assay (holding potential -85 mV); format: cell-based; conditions: CHO-K1 cells stably expressing human Nav1.5, holding potential -85 mV, Table 5, read-out: Nav1.5 IC50 (5 Hz, AF Rate)
Sequence (Q14524 whole entry): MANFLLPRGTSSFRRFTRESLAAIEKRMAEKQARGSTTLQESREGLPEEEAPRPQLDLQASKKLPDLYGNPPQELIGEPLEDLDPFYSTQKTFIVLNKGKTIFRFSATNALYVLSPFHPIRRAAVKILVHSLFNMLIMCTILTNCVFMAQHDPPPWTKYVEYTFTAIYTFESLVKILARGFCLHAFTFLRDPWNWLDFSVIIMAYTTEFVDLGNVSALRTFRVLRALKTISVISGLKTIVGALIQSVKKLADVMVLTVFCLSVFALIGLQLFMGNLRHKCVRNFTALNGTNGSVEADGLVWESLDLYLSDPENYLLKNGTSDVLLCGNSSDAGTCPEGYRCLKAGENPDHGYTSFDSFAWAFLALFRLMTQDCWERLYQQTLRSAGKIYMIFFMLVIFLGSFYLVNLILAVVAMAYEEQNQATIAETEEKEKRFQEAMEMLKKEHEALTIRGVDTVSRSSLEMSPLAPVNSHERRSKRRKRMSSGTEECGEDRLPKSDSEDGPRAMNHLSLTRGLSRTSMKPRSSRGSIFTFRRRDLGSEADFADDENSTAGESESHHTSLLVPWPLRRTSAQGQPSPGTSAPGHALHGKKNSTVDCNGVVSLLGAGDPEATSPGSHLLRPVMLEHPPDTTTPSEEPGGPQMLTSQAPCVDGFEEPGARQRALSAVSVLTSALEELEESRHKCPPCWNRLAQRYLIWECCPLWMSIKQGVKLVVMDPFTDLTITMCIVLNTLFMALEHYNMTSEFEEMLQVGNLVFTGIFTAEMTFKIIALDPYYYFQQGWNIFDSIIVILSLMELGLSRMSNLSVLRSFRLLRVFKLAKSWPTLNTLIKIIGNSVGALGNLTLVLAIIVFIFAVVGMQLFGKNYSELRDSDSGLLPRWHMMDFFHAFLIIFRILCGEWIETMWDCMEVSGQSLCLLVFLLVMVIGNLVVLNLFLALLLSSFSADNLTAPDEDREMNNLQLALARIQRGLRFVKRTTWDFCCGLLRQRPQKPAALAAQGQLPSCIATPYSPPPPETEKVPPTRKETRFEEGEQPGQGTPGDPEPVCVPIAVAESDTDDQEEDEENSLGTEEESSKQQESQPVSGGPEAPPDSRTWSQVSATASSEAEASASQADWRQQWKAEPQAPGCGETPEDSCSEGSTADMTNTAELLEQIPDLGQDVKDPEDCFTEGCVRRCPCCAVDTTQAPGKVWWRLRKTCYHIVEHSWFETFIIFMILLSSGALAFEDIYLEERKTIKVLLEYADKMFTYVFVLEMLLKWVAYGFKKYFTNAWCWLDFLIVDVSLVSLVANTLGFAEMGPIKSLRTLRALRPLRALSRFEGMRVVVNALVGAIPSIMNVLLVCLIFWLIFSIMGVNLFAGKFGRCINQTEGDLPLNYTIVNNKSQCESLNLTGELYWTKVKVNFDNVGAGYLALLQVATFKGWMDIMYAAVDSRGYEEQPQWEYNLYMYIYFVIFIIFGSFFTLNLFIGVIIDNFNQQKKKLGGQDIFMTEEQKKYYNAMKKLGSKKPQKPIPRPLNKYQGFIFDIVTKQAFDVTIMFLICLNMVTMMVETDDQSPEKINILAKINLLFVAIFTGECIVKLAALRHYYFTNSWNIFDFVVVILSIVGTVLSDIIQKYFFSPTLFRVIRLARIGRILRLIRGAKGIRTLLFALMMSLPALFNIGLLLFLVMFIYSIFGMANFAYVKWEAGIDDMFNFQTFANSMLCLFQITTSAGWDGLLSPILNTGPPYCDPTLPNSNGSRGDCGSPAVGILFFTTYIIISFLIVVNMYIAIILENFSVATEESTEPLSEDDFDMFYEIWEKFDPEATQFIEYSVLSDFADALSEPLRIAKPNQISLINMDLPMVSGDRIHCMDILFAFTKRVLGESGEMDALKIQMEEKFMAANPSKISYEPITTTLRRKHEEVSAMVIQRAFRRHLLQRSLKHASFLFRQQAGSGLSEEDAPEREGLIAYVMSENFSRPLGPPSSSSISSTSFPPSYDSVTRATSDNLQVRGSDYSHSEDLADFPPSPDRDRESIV
endpoint-label: pIC50
# log scale: pIC50 equals minus log10 of the concentration in mol/L

# input Give pIC50 for the following compound: CC(C(O)c1cccc(-c2nnn(Cc3cc(OC(F)(F)F)ccc3F)n2)n1)S(N)(=O)=O (single isomer, unassigned) [Example 51]
# output 4.60

# input Give pIC50 for the following compound: CC(c1cccc(-c2nnn(Cc3cc(OC(F)(F)F)ccc3F)n2)n1)C(CO)S(N)(=O)=O (single isomer, unassigned) [Example 33]
# output 5.89

# input Give pIC50 for the following compound: CC(O)(CS(N)(=O)=O)c1nc(-c2nnn(Cc3cc(OC(F)(F)F)ccc3F)n2)ccc1Cl (single isomer, unassigned) [Example 42]
# output 4.92

# input Give pIC50 for the following compound: CC(C(O)c1cccc(-c2nnn(Cc3cc(OC(F)(F)F)ccc3F)n2)n1)S(N)(=O)=O (single isomer, unassigned) [Example 49]
# output 5.24

# input Give pIC50 for the following compound: CC(O)(CS(N)(=O)=O)c1cccc(-c2nc(Cc3cc(OC(F)(F)F)ccc3F)no2)n1 (single isomer, unassigned) [Example 57]
# output 5.44

# input Give pIC50 for the following compound: CC(O)(CS(N)(=O)=O)c1cccc(-c2nnn(Cc3cc(OC(F)(F)F)ccc3F)n2)c1 (single isomer, unassigned) [Example 26]
# output 5.74
